# MEASUREMENT_TARGET: Solute carrier organic anion transporter family member 1B3 (Homo sapiens, UniProt Q9NPD5)
# RUN_CONDITIONS: chinese hamster, cho, 10 µM
Please go through the items and note down their residual activity.
Numbers only, in %.

# annotated cases, reported residual activity shown
O=c1oc2cc(O)ccc2s1    76.34
C=C1c2cccc(O)c2C(=O)C2=C(O)[C@]3(O)C(=O)C(C(N)=O)=C(O)[C@@H](N(C)C)[C@@H]3[C@@H](O)[C@H]12.Cl [METHACYCLINE HYDROCHLORIDE]    110.7
CN(C)CCN(Cc1cccs1)c1ccccn1.Cl [METHAPYRILENE HYDROCHLORIDE]    82.96

Give me residual activity for each of these molecules, listed below.
1. Cc1ccnc(NS(=O)(=O)c2ccc(N)cc2)n1
2. CC(=O)N[C@@H](CC(=O)O)C(=O)O
3. CC(C)(C)N.CCC[C@H](N[C@@H](C)C(=O)N1[C@H](C(=O)O)C[C@@H]2CCCC[C@@H]21)C(=O)OCC
4. COc1cc2c3cc1Oc1cc(ccc1O)C[C@@H]1c4c(cc(OC)c(O)c4Oc4ccc(cc4)C[C@@H]3N(C)CC2)CC[N+]1(C)C.[Cl-]
5. CCCCC1C(=O)N(c2ccccc2)N(c2ccccc2)C1=O

result:
[101.2, 103.6, 81.39, 110.3, 62.24]

---

# MEASUREMENT_TARGET: Solute carrier organic anion transporter family member 1B3 (Homo sapiens)
# Sequence (Q9NPD5 whole entry): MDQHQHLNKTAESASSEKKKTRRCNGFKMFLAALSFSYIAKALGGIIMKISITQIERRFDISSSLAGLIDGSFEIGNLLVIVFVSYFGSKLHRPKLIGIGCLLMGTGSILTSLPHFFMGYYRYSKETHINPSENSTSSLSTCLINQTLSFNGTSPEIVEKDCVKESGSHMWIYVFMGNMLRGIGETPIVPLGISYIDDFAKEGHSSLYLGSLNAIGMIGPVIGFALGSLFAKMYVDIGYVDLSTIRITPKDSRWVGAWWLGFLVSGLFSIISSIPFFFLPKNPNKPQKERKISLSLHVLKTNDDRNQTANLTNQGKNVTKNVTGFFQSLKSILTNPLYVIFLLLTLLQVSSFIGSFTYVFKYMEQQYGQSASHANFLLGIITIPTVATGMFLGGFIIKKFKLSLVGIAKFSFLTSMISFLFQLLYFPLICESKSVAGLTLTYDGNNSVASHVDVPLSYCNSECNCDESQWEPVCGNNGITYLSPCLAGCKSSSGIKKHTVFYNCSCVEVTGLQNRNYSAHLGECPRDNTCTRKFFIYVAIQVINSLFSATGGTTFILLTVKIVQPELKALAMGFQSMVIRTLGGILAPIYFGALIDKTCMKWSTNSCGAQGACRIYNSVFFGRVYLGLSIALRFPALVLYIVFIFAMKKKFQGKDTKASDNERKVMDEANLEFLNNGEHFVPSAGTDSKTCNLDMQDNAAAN
Please go through the items and note down their pIC50.
One number for each entry, as −log10 of the molar value.

CC(=O)O[C@@H]1C[C@@]2(C)[C@H](c3ccoc3)C[C@H]3O[C@]32[C@]2(C)C(=O)C(O)=C3C(C)(C)C(=O)C=C[C@]3(C)C12 (stereo not given in full) [ANTHOTHECOL]    5.46

Give me pIC50 for each of these compounds, listed below.
1. CC(C)=CCC[C@]1(C)C=Cc2c(O)c3c(c(CC=C(C)C)c2O1)O[C@]12C(C[C@@H]4C[C@H]1C(C)(C)O[C@@]2(C/C=C(/C)C(=O)O)C4O)C3=O (stereo not given in full)
2. Cc1cc2c(C(C)C)c(O)c(O)c(C=O)c2c(O)c1-c1c(C)cc2c(C(C)C)c(O)c(O)c(C=O)c2c1O [GOSSYPOL]
3. COC(=O)C[C@H]1C2(C)CC34OC5(C)O[C@@]6([C@H](OC)C(OC(=O)C(C)C)[C@]7(C)C(/C(=C(/OC)C(C)C)C(=O)O[C@H]7c7ccoc7)[C@@]6(O5)[C@H](OC)[C@@]3(OC)C2OC(C)=O)[C@]14C (stereo not given in full) [CHUKRASIN METHYL ETHER]
4. C[C@H]1CC[C@@]2(OC1)O[C@H]1C[C@H]3[C@@H]4CC[C@@H]5C[C@@H](O)CC[C@]5(C)[C@H]4CC[C@]3(C)[C@H]1[C@@H]2C [SARSASAPOGENIN]
5. CC(=O)O[C@@H]1C[C@H]2C(C)(C)[C@@H](O)CC[C@]2(C)[C@H]2CC[C@@]3(C)[C@H](c4ccoc4)OC(=O)[C@H]4O[C@]43[C@@]21C [beta-DIHYDROGEDUNOL]

result:
1: 5.55; 2: 5.34; 3: 6.14; 4: 6.98; 5: 5.49

Give me pIC50 for each of these compounds, listed below.
1. CCCCCCCCCc1ccc(OCCOCCOCCOCCOCCOCCOCCOCCOCCO)cc1 [NONOXYNOL 9]
2. CC(=O)O[C@@H]1C[C@@H]2C(C)(C)[C@H](O)C=C[C@@]2(C)[C@@H]2CC[C@@]3(C)C(=CC(=O)O[C@@H]3c3ccoc3)[C@@]12C
3. C=C1[C@@H]2CC[C@@]3(C)[C@H](c4ccoc4)OC(=O)C[C@]13O[C@H]1C[C@H](OC(C)=O)C(C)(C)[C@H](CC(=O)OC)[C@]12C
4. CCCCC/C=C\C/C=C\C/C=C\C/C=C\CCCC(=O)O [ARACHIDONIC ACID]
5. C=C1[C@@H]2CC[C@@]3(C)[C@H](c4ccoc4)OC(=O)C[C@]13O[C@H]1CC(=O)C(C)(C)[C@H](C(OC(C)=O)C(=O)OC)[C@]12C (stereo not given in full) [METHYL 6-ACETOXYANGOLENSATE]
6. CC1(C)C(=O)[C@@H]2O[C@@H]2[C@]2(C)[C@H]3CC[C@@]4(C)[C@H](c5ccoc5)OC(=O)[C@H]5O[C@]54[C@]3(C)[C@H](O)C[C@@H]12
7. CC(=O)OC/C=C(C)/C=C/C=C(C)/C=C/C1=C(C)CCCC1(C)C [GILRETINOL ACETATE]
8. CCCCCc1c2c(cc(O)c1C(=O)O)OC(=O)c1c(cc(OC)cc1C(=O)CCCC)O2 [LOBARIC ACID]

result:
5.43
5.43
5.35
5.97
5.42
5.53
5.30
5.79

Give me pIC50 for each of these compounds, listed below.
1. COC(=O)CC[C@@H](C)[C@H]1CC[C@H]2[C@@H]3[C@H](O)C[C@@H]4C[C@H](O)CC[C@]4(C)[C@H]3C[C@H](O)[C@]12C [CHOLIC ACID, METHYL ESTER]
2. O=C(O[C@@H]1Cc2c(O)cc(O)cc2O[C@@H]1c1cc(O)c(O)c(O)c1-c1c([C@H]2Oc3cc(O)cc(O)c3C[C@H]2O)cc(O)c(O)c1O)c1cc(O)c(O)c(O)c1 [2',2'-BISEPIGALLOCATECHIN MONOGALLATE]
3. O=C(O[C@@H]1Cc2c(O)cc(O)cc2O[C@@H]1c1ccc(O)c(O)c1)c1cc(O)c(O)c(O)c1 [EPICATECHIN GALLATE]
4. C[C@@H]1O[C@H](O[C@@H]2[C@@H](O)[C@H](O[C@@H]3[C@@H](O)[C@@H](O)[C@@H](O[C@H]4[C@@H](OC(=O)[C@]56CCC(C)(C)C[C@@H]5C5=CC[C@@H]7[C@@]8(C)CC[C@H](O[C@@H]9O[C@H](CO)[C@@H](O)[C@H](O)[C@H]9O)C(C)(C)[C@@H]8CC[C@@]7(C)[C@]5(C)C[C@H]6O)OC[C@@H](O)[C@@H]4O)O[C@H]3C)OC[C@H]2O)[C@H](O)[C@H](O)[C@H]1O
5. CCC(=O)O[C@H]1[C@H](O[C@@H]2[C@@H](C)[C@H](O[C@H]3C[C@@](C)(OC)[C@@H](O)[C@H](C)O3)[C@@H](C)C(=O)O[C@H](CC)[C@@](C)(O)[C@H](O)[C@@H](C)C(=O)[C@H](C)C[C@@]2(C)O)O[C@H](C)C[C@@H]1N(C)C.CCCCCCCCCCCCOS(=O)(=O)O [ERYTHROMYCIN ESTOLATE]
6. COC(=O)C[C@H]1C2(C)CC34OC5(C)O[C@@]6([C@H](OC(C)=O)C(OC(C)=O)[C@]7(C)C(/C(=C(/O)C(C)C)C(=O)O[C@H]7c7ccoc7)[C@@]6(O5)[C@H](OC(C)=O)[C@@]3(O)C2OC(=O)C(C)C)[C@]14C (stereo not given in full) [BUSSEIN]

result:
1. 5.43
2. 5.07
3. 5.35
4. 5.28
5. 5.51
6. 6.16

---

# MEASUREMENT_TARGET: Solute carrier organic anion transporter family member 1B1 (Homo sapiens, UniProt Q9Y6L6)
# Sequence (Q9Y6L6 whole entry): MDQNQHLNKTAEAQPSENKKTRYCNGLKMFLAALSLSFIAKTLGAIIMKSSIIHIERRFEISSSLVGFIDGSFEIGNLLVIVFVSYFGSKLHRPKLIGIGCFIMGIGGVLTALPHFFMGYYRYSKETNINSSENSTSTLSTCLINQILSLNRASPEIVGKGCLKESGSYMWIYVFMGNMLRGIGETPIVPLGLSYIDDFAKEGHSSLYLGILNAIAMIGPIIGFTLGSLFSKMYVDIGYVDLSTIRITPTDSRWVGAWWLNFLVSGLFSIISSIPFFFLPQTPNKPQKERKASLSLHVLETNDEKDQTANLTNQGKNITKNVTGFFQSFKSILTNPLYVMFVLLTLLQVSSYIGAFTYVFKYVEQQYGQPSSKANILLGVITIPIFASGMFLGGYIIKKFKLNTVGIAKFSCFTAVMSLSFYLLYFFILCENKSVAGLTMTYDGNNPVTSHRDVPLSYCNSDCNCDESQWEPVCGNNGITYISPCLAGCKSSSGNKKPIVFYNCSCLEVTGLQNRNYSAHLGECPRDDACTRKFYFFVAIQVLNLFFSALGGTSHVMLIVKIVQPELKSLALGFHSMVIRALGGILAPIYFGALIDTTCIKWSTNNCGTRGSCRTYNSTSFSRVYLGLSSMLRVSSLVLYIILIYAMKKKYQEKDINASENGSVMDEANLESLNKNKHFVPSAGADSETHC
# RUN_CONDITIONS: chinese hamster, cho, 10 µM
EXPERIMENTAL_ENDPOINT: residual activity (%)
Give bare numbers, in %.

# annotated cases, reported residual activity shown
C=CCCCCCCCCCCCC(O)CC(O)CO (stereo in doubt; form 1) [AVOCADENE]    107.8
C[C@H]1C[C@H]2[C@@H]3CCC4=CC(=O)C=C[C@]4(C)[C@@]3(F)[C@@H](O)C[C@]2(C)[C@@]1(O)C(=O)CO    76.17
CCN(CCO)CCCC(C)Nc1ccnc2cc(Cl)ccc12.O=S(=O)(O)O (centres undefined) [HYDROXYCHLOROQUINE SULFATE]    90.44

query: Consider the compound CC(=O)O[C@H]1CC[C@]2(C)C3=C(CC[C@H]2C1(C)C)[C@@]1(C)CC[C@H]([C@H](C)CCC=C(C)C)[C@]1(C)CC3 . State its measured residual activity.
result: 29.18
